Origin of the recorded values: PubChem BioAssay (NCI)

Test system: OVCAR-5 ovarian
protocol-description: NCI tumour cell line growth inhibition, 48 h
Exercise: for every item that follows, state its recorded GI50.

Give GI50 for all compounds that follow.
1. O=C1C(Cl)=C(Nc2ccccn2)C(=O)c2ccccc21
2. C[CH2][Sn]([Cl])([CH2]C)[CH2]C
3. OCCN1CCN(c2nc(Nc3ccc(-c4nc5ccccc5[nH]4)cc3)c3cn[nH]c3n2)CC1
4. COc1cc(CCNc2nc3cc(N)cc(N)c3nc2-c2ccccc2)cc(OC)c1

Data returned:
1. 7.42 µM
2. 3.33 µM
3. 1.83 µM
4. 1.83 µM

Give me GI50 for each of these compounds, listed below.
1. C=CCCC(O)c1ccc(CCCCCCCCCCC)o1 (centres undefined)
2. COc1cc([N+](=O)[O-])c(OC)cc1-c1nc2n(c1/C(N)=N/C(=N)N)CCS2
3. Cc1cccc2c1ccc1c3occ(C)c3c(=O)oc21
4. COC(=O)c1cc(NC(=O)CN(CCN(CC(=O)O)CC(=O)Nc2ccc(O)c(C(=O)OC)c2)CC(=O)O)ccc1O
5. COc1ccc2c(c1)c(-c1nc(-c3cn(C)c4ncccc34)cs1)cn2CCCCN1CCOCC1

Data returned:
["18.3 µM", "> 100 µM", "> 100 µM", "> 100 µM", "1.68 µM"]
